Could you please report measured IC50 for the items listed next?
Target: T1, recombinant human RANKL (soluble, Gly136-Asp317, N-terminal 10 His, expressed in CHO cells) (human, UniProt O14788 136-317)
T1 construct: residues between secretion signal and His tag are not described; also called hRANKL; hRNAKL
T1 sequence: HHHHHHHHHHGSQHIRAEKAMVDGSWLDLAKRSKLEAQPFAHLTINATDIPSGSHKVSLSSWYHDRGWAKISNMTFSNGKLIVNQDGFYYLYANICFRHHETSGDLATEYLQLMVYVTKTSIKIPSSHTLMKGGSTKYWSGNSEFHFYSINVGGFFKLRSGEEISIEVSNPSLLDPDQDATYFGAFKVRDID
Assay: competitive ELISA, RANK-Fc coated, antibody pre-incubated with 0.25 µg/ml hRANKL; Plate#02

| binder | result.type | observed.result |
| --- | --- | --- |
| G13 (antibody, human IgG2, kappa, V domains shown, 293F cells) VH: QVQLVQSGAELKKPGASVKLSCKASGYTFTTYWLQWVRQAPGQGLEWMGAIYPGPGNTKYTQKFKDRFTITADTSKSTAYMQLNSLKSEDSAVYYCARRGSRRGIAYWGQGTLVTVSA VL: NIVLTQSPASLSVSLGQRATISCRASESVDSYGRSFMHWYQQKPGQAPKLLIYLASNLESGVPSRFSGSGSRTDFTLTISRVEAEDAATYYCQQDNEDPYTFGGGTKLEIKG | IC50 | 0.31 µg/mL |

Return reported IC50; argument: G1 (antibody, human IgG2, kappa, V domains shown, expressed in 293F cells; also called murine antibody G1; mouse antibody (G1)) VH: QVQLQQSGAELASPGASVKLSCKASGYTFTTYWLQWVKQRPGQGLEWIGAIYPGPGNTKYTQKFKDKATLTADKSASTAYMQLNSLTSEDSAVYYCARRGSRRGIAYWGQGTLVTVSA VL: NIVLTQSPASLAVSLGQRATISCRASESVDSYGRSFMHWYQQRPGQPPTLLIYLASNLESGVPVRFSGSGSRTDFTLTIDPVEADDAATYYCQQDNEDPYTFGGGTKLEIKG
~0.35 µg/mL

Data origin, for the record: patent EP3085709A1
